Molecular target: T1, human GIP receptor (human, UniProt P48546 22-466)
T1 sequence (looked up): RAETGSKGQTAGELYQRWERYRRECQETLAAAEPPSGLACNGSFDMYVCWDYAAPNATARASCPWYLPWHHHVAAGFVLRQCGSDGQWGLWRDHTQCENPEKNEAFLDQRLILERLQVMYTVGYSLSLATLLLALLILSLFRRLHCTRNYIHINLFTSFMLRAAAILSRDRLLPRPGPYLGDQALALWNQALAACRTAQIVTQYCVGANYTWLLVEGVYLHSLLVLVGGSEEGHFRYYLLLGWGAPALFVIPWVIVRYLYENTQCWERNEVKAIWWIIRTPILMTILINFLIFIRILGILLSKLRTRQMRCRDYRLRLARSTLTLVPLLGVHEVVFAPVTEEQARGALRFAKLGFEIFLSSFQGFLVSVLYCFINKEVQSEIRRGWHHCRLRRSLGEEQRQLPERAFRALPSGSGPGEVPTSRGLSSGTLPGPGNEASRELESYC
Assay: cell-based or functional assay
Ends that are not written are not given here. * marks the point of attachment. Stearoyl = CCCCCCCCCCCCCCCCCC(=O)*; Palmitoyl = CCCCCCCCCCCCCCCC(=O)*; Myristoyl = CCCCCCCCCCCCCC(=O)*; Lauroyl = CCCCCCCCCCCC(=O)*

# BINDER, cAMP agonism, EC50 (log) / log M
rows = [
    ("EGTFISDYSIAMDK(Lauroyl)IHQQDFVNWLLAQK-NH2 [AT102 [hGIP(3-30)NH2-C12/16]]", -9.1),
    ("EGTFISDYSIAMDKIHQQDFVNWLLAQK(Stearoyl)-NH2 [AT115 [hGIP(3-30)NH2-C18/30]]", -6.9),
    ("EGTFISDYSIAMDK(Stearoyl)IHQQDFVNWLLAQK-NH2 [AT114 [hGIP(3-30)NH2-C18/16]]", -5.5),
    ("Palmitoyl-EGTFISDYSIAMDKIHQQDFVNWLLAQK-NH2 [AT104 [hGIP(3-30)NH2-C16/3]]", -8.6),
    ("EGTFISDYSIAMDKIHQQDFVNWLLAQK(Myristoyl)-NH2 [AT112 [hGIP(3-30)NH2-C14/30]]", -5.4),
    ("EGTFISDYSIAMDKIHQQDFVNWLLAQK(Palmitoyl)-NH2 [AT106 [hGIP(3-30)NH2-C16/30]]", -6.4),
]
